# TEST_SYSTEM: HLA-A*29:02 (human, UniProt P04439 25-308)
# MEASUREMENT_PROTOCOL: in vitro peptide-MHC affinity measurement
pIC50: −log10 of the molar value.
PROPERTY_NAME: pIC50

binder=GLPDLVAKY property_name=pIC50 test_value=7.53

a: GLDDKLLHY
b: LPLDIQIFY
c: FYPELKLAY
Endpoint returns the given binders ordered by ascending pIC50. Give the order by naming the labels one after another as requested. a, b, c

Taken from patent US20210104294A1.
